# assay_comment: yeast display, Sf9 membrane polyspecificity reagent, FACS + sequencing; frameworks hold sequencing errors
readout_kind: polyreactivity (PSR sort gate)

QVQLEVSGGVLVQPGGSIRLSCAASGFIFGFYAKGWYRQAPGKERELVASISGRGGRTSYADSVKGRFTISRDNAKNTVYLQMNSLKPEDTAVYYCNKAGYGVSRKYDYWGQGTQVNVSS :: high polyreactivity
QVHLVESGGGLVQAGGSRRLSCAASGRIFSRYTMGCYRQAPGKERELVAVNTSGGSTNYADSVKGRFTISRDNAKNTVYLQMNSLKPEDTAVYYCNAVRFTYGGYLRRYDYWGQGTQVTVSS :: high polyreactivity
QVQLQESAGGLVQAGGSLRLRFSASAYNSCDASMGWYSQAPGKERELSASISKGSSTNYADSVKGRFTIRDNAKNSVYLQMNSLKPEVTAVCYCAVTYPYWGDYTYWGQGTQVSVSS :: low polyreactivity
QVQLVESGGGLVQAGGSLRLSCAAYGRTFGPNVMGWYRQAPGKERELVAVITSSGGRTYYADSVKGRFTISRDNAKNTVFLQMNSLKPEDTAVYSCAADAKKFVGTKNAEHVYWGQGTQVTVSS :: low polyreactivity
QVQLVESGGGLVQAGGSLRLSCAASGSTFGYYAMGWYRQAPGKERELVAAIRSSGGGTYYADSVKGRFTISRDNAKNTVYLQMNSLKPEDTAVYYCATDAPILVNAEYDEWLEYDYWGQGTQVTVSS :: low polyreactivity
QVHLVESGGGLVQAGGSLRLSCAASGSILGSNAMGWYRQAPGKERELVAAISSGGSTDYADSVKVRFTISRDNAKNTVYLQMYCLKPEDTAVYYCAAGFIYHYGLYKIYDYYYWGQGTQVTVSS :: low polyreactivity

Asked: Endpoint output: polyreactivity (PSR sort gate) of QVHLVESGGGLVQAGGSLRLSCAASGSTFTYNTMGWYRQAPGKERELVAAITWSGGRTYYADSVKGRFTISRDNAKNTVYLQMNSLKPEDTAVYYCNADSSGVTSAYDYWGQGTQVTVSS . Value?
Given back: high polyreactivity

Asked: Endpoint output: polyreactivity (PSR sort gate) of QEQLVESGGGLVQAGGSLRLSCAASGRIFPYYAMGWYRPAPGKERELVASITARGGSTYYADSVKGRFTISRDNAKNTVYLQMNSLKPEDTAVYYCATRGYAWSSDKFGYWGQGTQVTVSS . Value?
Given back: high polyreactivity

Asked: Endpoint output: polyreactivity (PSR sort gate) of QVQLVESGGGLVQAGGSLRLSCAASGYIFPSYAMGWYRQAPGKERELVAVITTRGSTYYADSVKGRFTISRDNAKNTVYLQMNSVKAEETAVYYCAAAPYVYWFFVRPYGDDYWGLGTQVTVSS . Value?
Given back: high polyreactivity

Asked: Endpoint output: polyreactivity (PSR sort gate) of QVQLVESRGGLVQAGGSLRLSCPASGFTFVNYAMGWYRQAPGKERELVAAIRRSGSRTYYADSVKGRFTISRDNAKNTVYLQMNSLKPEVTAVYYCNAPVVYFWPLNFDYWGQGTQVTVSS . Value?
Given back: low polyreactivity

Asked: Endpoint output: polyreactivity (PSR sort gate) of QVQLVESGGGLVQAGGSLRLSCAASGSTFYLYAMGWYRQAPGKERELVAAISSGGRTYYADSVKGRFTISRDNAKNTVYLQMNRLKPEDTAVYYCAKVYRRRYYWGQGTQVNVSS . Value?
Given back: high polyreactivity

Origin of values: the nanobody polyreactivity screen of Harvey et al. (2022)
